- System: CV-B3
- Protocol summary: microbe, parasite or virus in culture
- Assay type: cell-based, coxsackievirus B3
- Experimental setup: Enterovirus B, CVB3, HeLa
Measured attribute: EC50 (µM)
The response must be a number in µM with no trailing unit.

- COc1ccc(N(Cc2ccc(F)cc2)C(=O)c2ccc[nH]2)cc1: 4.82
- COc1ccc(N(Cc2ccccc2)C(=O)c2ccco2)cc1 [Compound 19c]: 4.42
- CC(C)c1ccc(CN(C(=O)c2ccco2)c2ccccc2)cc1 [Compound 19h]: 7.62
- COc1ccc(N(Cc2ccc(F)cc2)C(=O)c2cc[nH]c2)cc1 [Compound 12a]: 0.01

Moving on to another molecule below.
Task item: What value of EC50 has been reported for the following molecule? O=C(c1ccco1)N(Cc1ccccc1)c1ccc(C(F)(F)F)cc1 [Compound 19i]
Reply: 2.75
